This collection of values is drawn from paper PMC9414910.

System: 22Rv1 tumor-bearing mice
assay.comment: Biodistribution in 22Rv1 tumor-bearing mice
experimental.conditions: 60 min p.i., 0.74 MBq, n = 3
readout: Uptake Blood, Mean (ID%/g)

1. O=C([O-])CN1CCN(CC(=O)[O-])CCN(CC(=O)NCCCCC(=O)NC(Cc2cnc3ccccc3c2)C(=O)NCCCCC(NC(=O)NC(CCC(=O)O)C(=O)O)C(=O)O)CCN(CC(=O)O)CC1.[68Ga+3] (centres unmarked) [[^68Ga]Ga-PSMA-Q-1]; 0.37
2. O=C([O-])CN1CCN(CC(=O)[O-])CCN(CC(=O)NCC2CCC(C(=O)NC(Cc3ccncc3)C(=O)NCCCCC(NC(=O)NC(CCC(=O)O)C(=O)O)C(=O)O)CC2)CCN(CC(=O)O)CC1.[68Ga+3] (centres unmarked) [[^68Ga]Ga-PSMA-4PY]; 0.21

* * *

Reported Uptake Tumor (22Rv1), Mean is given for each of the following compounds.
Test system: 22Rv1 tumor-bearing mice
assay.comment: Biodistribution in 22Rv1 tumor-bearing mice
experimental.conditions: 30 min p.i., 0.74 MBq, n = 3
Description: The animal studies were approved by the institutional animal care and use committee of the Chinese PLA General Hospital. Healthy male ICR mice were injected with either a novel radiotracer (37 MBq in 150 μL) or saline (150 μL) for the radiotoxicity evaluation. […] […] (10 min, 30 min, 60 min), tumors and interested organs were harvested, weighed and measured by a γ-counter, the results were expressed as the percentage of injected dose per gram (ID%/g). […]
readout: Uptake Tumor (22Rv1), Mean

1) O=C([O-])CN1CCN(CC(=O)[O-])CCN(CC(=O)NCC2CCC(C(=O)NC(Cc3ccncc3)C(=O)NCCCCC(NC(=O)NC(CCC(=O)O)C(=O)O)C(=O)O)CC2)CCN(CC(=O)O)CC1.[68Ga+3] (stereo not shown) [[^68Ga]Ga-PSMA-4PY]; 1.83 ID%/g
2) O=C([O-])CN1CCN(CC(=O)[O-])CCN(CC(=O)NCCCCC(=O)NC(Cc2cnc3ccccc3c2)C(=O)NCCCCC(NC(=O)NC(CCC(=O)O)C(=O)O)C(=O)O)CCN(CC(=O)O)CC1.[68Ga+3] (stereo not shown) [[^68Ga]Ga-PSMA-Q-1]; 2.07 ID%/g
3) O=C([O-])CN1CCN(CC(=O)[O-])CCN(CC(=O)NCc2ccc(C(=O)NC(Cc3cnc4ccccc4c3)C(=O)NCCCCC(NC(=O)NC(CCC(=O)O)C(=O)O)C(=O)O)cc2)CCN(CC(=O)O)CC1.[68Ga+3] (stereo not shown) [[^68Ga]Ga-PSMA-Q-3]; 2.77 ID%/g
4) O=C([O-])CN1CCN(CC(=O)[O-])CCN(CC(=O)NCC2CCC(C(=O)NC(Cc3ccc4ccccc4c3)C(=O)NCCCCC(NC(=O)NC(CCC(=O)O)C(=O)O)C(=O)O)CC2)CCN(CC(=O)O)CC1.[68Ga+3] (stereo not shown) [[^68Ga]Ga-PSMA-617, reference compound]; 3.36 ID%/g
5) O=C([O-])CN1CCN(CC(=O)[O-])CCN(CC(=O)NCC2CCC(C(=O)NC(Cc3cnc4ccccc4c3)C(=O)NCCCCC(NC(=O)NC(CCC(=O)O)C(=O)O)C(=O)O)CC2)CCN(CC(=O)O)CC1.[68Ga+3] (stereo not shown) [[^68Ga]Ga-PSMA-Q]; 2.98 ID%/g
6) O=C([O-])CN1CCN(CC(=O)[O-])CCN(CC(=O)NCCCCCC(=O)NC(Cc2cnc3ccccc3c2)C(=O)NCCCCC(NC(=O)NC(CCC(=O)O)C(=O)O)C(=O)O)CCN(CC(=O)O)CC1.[68Ga+3] (stereo not shown) [[^68Ga]Ga-PSMA-Q-2]; 1.87 ID%/g
7) O=C([O-])CN(CCN(CC(=O)[O-])Cc1cc(CCC(=O)NCCCCCC(=O)NCCCC[C@H](NC(=O)N[C@@H](CCC(=O)O)C(=O)O)C(=O)O)ccc1[O-])Cc1cc(CCC(=O)O)ccc1[O-].[68Ga+3].[OH3+] [[^68Ga]Ga-PSMA-11, reference compound]; 1.90 ID%/g
